Measured koff of individual entries
# experimental-target: T1, human CD19 (human, UniProt P15391 20-291, biotinylated in the Biacore assay of Table 11)
# T1 construct: also called isolated CD19; Human CD19 Protein
# T1 sequence (looked up): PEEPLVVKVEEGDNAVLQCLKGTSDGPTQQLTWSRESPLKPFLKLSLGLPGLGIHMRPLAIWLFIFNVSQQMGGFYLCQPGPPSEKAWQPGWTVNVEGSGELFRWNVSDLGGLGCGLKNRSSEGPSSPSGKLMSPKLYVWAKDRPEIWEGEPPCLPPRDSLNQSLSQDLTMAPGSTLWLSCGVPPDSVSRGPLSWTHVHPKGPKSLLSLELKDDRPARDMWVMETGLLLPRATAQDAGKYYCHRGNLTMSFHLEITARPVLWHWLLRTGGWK
# experiment: SPR Biacore 8K, captured biotinylated CD19, scFv analyte
outcome-measure: koff (s⁻¹)

INSERT INTO assay_data (binder, numeric_result) VALUES
  ('CNG-CD19-707 VL-VH scFv (scFv) scFv: EIVLTQSPATLSLSPGERATLSCSASSSVGYMHWYQQKPGQAPRLLIYDTSKLASGIPARFSGSGSGTDFTLTISSLEPEDFAVYYCFQGSVYPFTFGQGTKLEIKGGGGSGGGGSGGGGSQVQLQESGPGLVKPSQTLSLTCTVSGGSISTSTMGVGWIRQHPGKGLEWIGFIWWDDDKRYNPNLKSRVTMSVDTSKNQFSLKLSSVTAADTAVYYCARMELWSYYFDPWGQGTLVTVSS', '2e-05'),
  ('CNG-CD19-103 VL-VH scFv (scFv) scFv: DIVMTQTPLSLSVTPGQPASISCKSSQSLETATGTTYLNWYLQKPGQSPQLLIYRVSRRFSGVPDRFSGSGSGTDFTLKISRVEAEDVGVYYCLQLLEDPYSFGQGTKLEIKGGGGSGGGGSGGGGSQVQLVQSGAEVKKPGASVKVSCKASGYTFTDYIMHWVRQAPGQGLEWMGYINPYNDGSKYTEKFQGRVTMTSDTSISTAYMELSRLRSDDTAVYYCARGTYYYGPQLFDYWGQGTTVTVSS', '2.41e-05'),
  ('CNG-CD19-701 VL-VH scFv (scFv) scFv: EIVLTQSPATLSLSPGERATLSCSASSSVGYMHWYQQKPGQAPRLLIYDTSKLASGIPARFSGSGSGTDFTLTISSLEPEDFAVYYCFQGSVYPFTFGQGTKLEIKGGGGSGGGGSGGGGSQVQLQESGPGLVKPSQTLSLTCTVSGGSISTSTMGVGWIRQHPGKGLEWIGFIWWDDDKRYNPNLKSRVTMSVDTSKNQFSLKLSSVTAADTAVYYCARMELWSYYFDYWGQGTLVTVSS', '2e-05'),
  ('CNG-CD19-101 VL-VH scFv (scFv, scFv without the engineered disulfide) scFv: DIVMTQTPLSLSVTPGQPASISCKSSQSLETTTGTTYLNWYLQKPGQSPQLLIYRASKRFSGVPDRFSGSGSGTDFTLKISRVEAEDVGVYYCLQLLEDPYTFGQGTKLEIKGGGGSGGGGSGGGGSQVQLVQSGAEVKKPGASVKVSCKASGYDFTDYIMHWVRQAPGQGLEWMGYINPYNDGSKYTDKFQERVTMTSDTSISTAYMELSRLRSDDTAVYYCARGTYYYGPELFDYWGQGTTVTVSS', '2e-05'),
  ('CNG-CD19-710 VL-VH scFv (scFv) scFv: EIVLTQSPATLSLSPGERATLSCSASSSFSYMHWYQQKPGQAPRLLIYDTSKLASGIPARFSGSGSGTDFTLTISSLEPEDFAVYYCFQGSVYPFTFGQGTKLEIKGGGGSGGGGSGGGGSQVQLQESGPGLVKPSQTLSLTCTVSGVSISTSSMGVGWIRQHPGKGLEWIGHAWWDDDKRYNPALKSRVTISVDTSKNQFSLKLSSVTAADTAVYYCARMELWSYYFDPWGQGTLVTVSS', '2e-05');
